Reference source: paper PMC11589570

Biological target: GABARAPL2 (Homo sapiens)
Sequence (P60520 whole entry): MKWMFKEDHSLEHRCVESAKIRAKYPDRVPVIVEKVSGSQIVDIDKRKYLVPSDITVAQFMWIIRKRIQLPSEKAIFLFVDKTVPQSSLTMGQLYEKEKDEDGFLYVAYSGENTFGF
Conditions: residue K66; GABARAPL2:ligand molar ratio 1:2
CSP for assorted compounds
Include the unit after the number when you answer.

Below: 3 compounds and their reported CSP.
O=c1cc(-c2ccccc2)c2c(O)cc(O)cc2o1 [compound 2]	0.00316 ppm
O=C1Nc2ccc(Br)cc2C1=Cc1cc(O)c(O)c(Br)c1 [compound 1]	0.004 ppm
Cc1ccc(C(=O)N(CCCN)[C@@H](c2nc3cc(Cl)ccc3c(=O)n2Cc2ccccc2)C(C)C)cc1 [compound 3]	0.00142 ppm

# ---- query compound ----
[Q] Recorded CSP of O=C1Nc2ccc(I)cc2C1=Cc1cc(Br)c(O)c(Br)c1 [compound 4] , please.
[A] 0.020 ppm
